tested on: SF-268 CNS; assay: NCI tumour cell line growth inhibition, 48 h
Listed next: entries and their corresponding TGI.

Solved entries:
Molecule | TGI
Cn1c(=O)oc2cc(C(=S)N3CCC(Cc4ccccc4)CC3)ccc21 | > 100 µM
O=C1C=C(c2c(-c3ccccc3)[nH]c3ccccc23)C(=O)N1c1ccccc1 | 21.5 µM
Cn1c(N(CCO)CCO)cnc1[N+](=O)[O-] | > 100 µM
CCOC(=O)C1=C(N)Oc2c(sc3c(C)cccc23)C1c1ccc(Cl)cc1 (stereo not drawn) | 22.4 µM
COc1ccc(-c2cn(-c3ccc(Cl)cc3)c(=S)[nH]2)cc1OC | > 100 µM
CNc1nnnn1C1OC(CO)C(O)C1O (stereo not drawn) | > 100 µM
CCOC(=O)C1=C(OS(=O)(=O)C(F)(F)F)CCCC1 | > 100 µM
COc1cc(C2SCC(=O)N2c2ccc(-c3ccc(-n4c(-c5ccccc5)nc5ccccc5c4=O)cc3)cc2)ccc1O (stereo not drawn) | > 100 µM
C[C@H](CCC(=O)O[C@@H]1CC[C@@]2(C)C(CC[C@H]3[C@@H]4CC[C@H]([C@H](C)CCc5nc6ccccc6[nH]5)[C@@]4(C)CC[C@@H]32)C1)[C@H]1CC[C@H]2[C@@H]3CCC4C[C@H](O)CC[C@]4(C)[C@H]3CC[C@]12C (stereo partly drawn) | > 100 µM
CCCCCCCCCCCCOC1C(CNC(=O)C2OC3OC(C)(C)OC3C2NC(=O)CN2CCN(c3ccccn3)CC2)OC2OC(C)(C)OC21 (stereo not drawn) | 6.31 µM

Recall the recorded TGI for `C=C1C(=O)O[C@H]2[C@H]1CC/C(C=Nc1ccc(C(F)(F)F)cc1N)=C\CC[C@@]1(C)O[C@@H]21` with SF-268 CNS and state it. 21.1 µM

Can you look up TGI on SF-268 CNS for CC1=NN(C(=O)CC(=O)Nc2ccccc2C)C(=O)C1N=Nc1ccc(S(=O)(=O)c2ccc(N=NC3C(=O)N(C(=O)CC(=O)Nc4ccccc4C)N=C3C)cc2)cc1 (stereo not drawn) ? > 100 µM

Enter reported TGI observed with SF-268 CNS for OC(c1ccc(F)cc1)C(F)(F)c1nc(-c2ccccc2)no1 (stereo not drawn) 62.9 µM

----------
Attribute: TGI
system: SW-620 colon; assay: NCI tumour cell line growth inhibition, 48 h

Molecule | Measurement target | Result
CC(C)(C)c1ccc(-c2nc3ccccc3c(=O)o2)cc1 | SW-620 colon | > 100 µM
COc1c(OC(C)=O)c(OC(C)=O)cc2c1-c1ccc(OC)c(=O)cc1C(NC(C)=O)CC2 (stereo not given) | SW-620 colon | > 100 µM
C=CCCC(O)c1ccc(C(O)CCCCCCCCCCCC)o1 (stereo not given) | SW-620 colon | 37.9 µM

Report TGI for O=c1[nH]c(=O)n(C2CC(O)C(COP(=O)(O)OC3CC(n4cc(F)c(=O)[nH]c4=O)OC3COP(=O)(O)OC3CC(n4cc(F)c(=O)[nH]c4=O)OC3COP(=O)(O)OC3CC(n4cc(F)c(=O)[nH]c4=O)OC3COP(=O)(O)OC3CC(n4cc(F)c(=O)[nH]c4=O)OC3COP(=O)(O)OC3CC(n4cc(F)c(=O)[nH]c4=O)OC3COP(=O)(O)OC3CC(n4cc(F)c(=O)[nH]c4=O)OC3COP(=O)(O)OC3CC(n4cc(F)c(=O)[nH]c4=O)OC3COP(=O)(O)OC3CC(n4cc(F)c(=O)[nH]c4=O)OC3COP(=O)(O)OC3CC(n4cc(F)c(=O)[nH]c4=O)OC3CO)O2)cc1F (stereo not given) please. > 50 µM

What value of TGI has been recorded for this entry: `CC(C)=CCC[C@](C)(O)[C@H]1CC[C@]2(C)[C@@H]1[C@H](O)C[C@@H]1[C@@]3(C)CC[C@H](O[C@@H]4O[C@H](CO)[C@@H](O)[C@H](O)[C@H]4O)C(C)(C)[C@@H]3CC[C@]12C` 36.6 µM

Fill in the blank: the reported TGI of COC1OCC(OS(=O)(=O)c2ccc(C)cc2)C(OC(=O)c2ccccc2)C1OC(=O)c1ccccc1 (stereo not given) is ____. > 100 µM

Could you share which TGI value was measured for `COc1c(C(=O)/C(=N/Nc2ccccc2)C(C)=O)c(O)c(OC)c2occc12` ? > 100 µM

Look up TGI for this molecule: C[C@@H]1CCC2[C@@H](C)[C@H](O[C@H]3O[C@@H]4O[C@@]5(C)CCC6[C@H](C)CCC([C@H]3C)[C@]64OO5)O[C@@H]3O[C@@]4(C)CCC1[C@@]23OO4 (stereo not given in full) 16.5 µM

Reported TGI for `Oc1ccc2ccccc2c1-c1c(Nc2ccccc2)ccc2ccccc12` : what is it? 26.8 µM

Look at this molecule and give its reported TGI. `Nc1ccn([C@H]2CO[C@@H](CO)O2)c(=O)n1` > 100 µM

Which TGI is reported for this molecule? `O=C(/C=C/C=C/c1ccccc1)c1ccc(Nc2nc(Nc3ccccc3)nc(Nc3ccccc3)n2)cc1` > 100 µM

----------
Reported TGI values are given for each entry in this list.
system: MCF7 breast; assay: NCI tumour cell line growth inhibition, 48 h

Compound | Measurement target | Result
CC(=O)Oc1ccc2ccc(=O)oc2c1OC(C)=O | MCF7 breast | > 100 µM
COC(=O)NNc1c([N+](=O)[O-])cnn(-c2ccccc2)c1=O | MCF7 breast | 18 µM
CC1CC(=O)N2CCCNC2=C1C#N (stereo unspecified) | MCF7 breast | > 100 µM
CCCCC(NC(=O)CC)C(=O)O (stereo unspecified) | MCF7 breast | > 100 µM
O=C(O)c1cc(N/C=C2\C(=O)c3ccccc3OC2O)ccc1O (stereo unspecified) | MCF7 breast | 115 µg/mL

// switching to the query compound
// query TGI value for entry CCCCCCCCCCCCOC1C(CNC(=O)C2OC3OC(C)(C)OC3C2NC(=O)CN2CCN(c3ccccn3)CC2)OC2OC(C)(C)OC21 (stereo unspecified) 4.58 µM

----------
system: NCI-H460 lung; experiment: NCI tumour cell line growth inhibition, 48 h
TGI values by entry

Molecule | Measurement target | Reported property | Result
COc1ccc(C(=O)C(c2ccc(OC)cc2)C2C(=O)Oc3ccccc32)cc1 (stereo not given) | NCI-H460 lung | TGI | > 100 µM
COc1ccc(OC)c(C2CCCc3c2cnc2nc(N)nc(N)c32)c1 (stereo not given) | NCI-H460 lung | TGI | > 100 µM
CC1CC(=O)N2CCCNC2=C1C#N (stereo not given) | NCI-H460 lung | TGI | > 100 µM
CCOC(=O)c1ccc2c(c1)[n+](=O)c(C(=O)c1ccc3ccccc3c1)c(C(F)(F)F)n2[O-] | NCI-H460 lung | TGI | 3.2 µM
COc1ccccc1CNCCCN1C(=O)c2ccc3c4c(ccc(c24)C1=O)C(=O)N(CCCNCCCCNCCCCN)C3=O | NCI-H460 lung | TGI | 5.8 µM
CC1(C)N(OC2CCCCO2)C(c2ccccc2)C(c2ccccc2)=[N+]1[O-] (stereo not given) | NCI-H460 lung | TGI | > 100 µM
O=C(/C=C/c1ccccn1)c1ccccc1O | NCI-H460 lung | TGI | 5.17 µM
COC1OCC(OS(=O)(=O)c2ccc(C)cc2)C(OC(=O)c2ccccc2)C1OC(=O)c1ccccc1 (stereo not given) | NCI-H460 lung | TGI | > 100 µM
CCCCOP(=O)(OCCCC)/C(C#N)=C/c1ccc(C)o1 | NCI-H460 lung | TGI | > 100 µM

Please look up its TGI: `COc1ccc(C(=O)/C=C2\c3ccccc3C(=O)N2C)cc1` > 100 µM

----------
system: LOX IMVI melanoma; assay: NCI tumour cell line growth inhibition, 48 h
Reported property: TGI

Compound | Reported property | Result
O=C(CSc1nc2ccc([N+](=O)[O-])cc2[nH]1)Nc1cccc(Cl)c1 | TGI | 13 µM
Cc1c2ccccc2c(CO)c2cc(F)c3ccccc3c12 | TGI | 36.1 µM
COc1ccc(-c2cc(-c3ccc(O)cc3)nc3nc(=S)[nH]c(N)c23)cc1 | TGI | 30.3 µM
CC1(C)CC(=O)C(C(c2cccc(O)c2O)C2C(=O)CC(C)(C)CC2=O)C(=O)C1 | TGI | > 100 µM
Nc1nc(=O)n(C2CC(O)C(O)C(CO)O2)cc1F (stereo not drawn) | TGI | > 100 µM
Cc1c(C)c(S(=O)(=O)N(CCCCCN)OCCCN)c(C)c2c1OC(C)(C)CC2 | TGI | > 44.4 µM
O=C1Nc2ccccc2C1(c1ccc(O)c(F)c1)c1ccc(O)c(F)c1 | TGI | 15.8 µM
CCOC(=O)C1=C(N)Oc2c(sc3c(C)cccc23)C1c1ccc(Cl)cc1 (stereo not drawn) | TGI | 13.7 µM
C/C(=N\Nc1ccc2ccccc2n1)c1ccccc1O | TGI | > 100 µM
COc1ccc(CN2C(=O)C(Cc3cc(OC)c(OC)c(C)c3OC)N(C(=O)OC(C)C)C(=O)/C2=C/c2cc(OC)c(OC)c(C)c2OC)cc1 (stereo not drawn) | TGI | > 100 µM

Item under review: `CC/C(Cl)=N\OC(=O)Nc1ccccc1OC(F)(F)F` . Reported TGI? 5.65 µM

Suppose we examine the compound `CN(C)c1ccccc1CC(c1c[nH]c2ccccc12)c1c[nH]c2ccccc12` ; what TGI value has been reported? 24.4 µM

Which measured TGI value corresponds to `O=C(/C=C/C=C/c1ccccc1)c1ccc(Nc2nc(Nc3ccccc3)nc(Nc3ccccc3)n2)cc1` ? > 100 µM

Fill in: TGI of `O=C(CCCCCCC(=O)N/N=C/c1ccc(N(c2ccccc2)c2ccccc2)cc1)NO` is ___ 1.61 µM

# credit: PubChem BioAssay (NCI)
